Molecular target: M1 muscarinic receptor (Homo sapiens, UniProt P11229)
Construct: expressed in transfected cells; host or cells: CHO cells (M1-CHO, under zeocin and G418 selection)
Assay: Functional mobilization of intracellular calcium (FLIPR, Fluo-3), M1-CHO cells
Type: cell-based
Conditions: compound nos. 1-454; 100% efficacy is the maximum response obtained with the Carbachol control; read-out: M1 Efficacy
Attribute: Emax

CCOC(=O)N1CCC(CN2CCC3(CC2)CN(C(C)=O)c2c(F)cccc23)CC1: 65 to 85%

Query: Give Emax for this entry on M1 muscarinic receptor (Homo sapiens, UniProt P11229): "CC(=O)N1CC2(CCN(CC3CCCC3)CC2)c2cc(F)ccc21"
Result: 65 to 85%

Query: Give Emax for this entry on M1 muscarinic receptor (Homo sapiens, UniProt P11229): CCCOC(=O)N1C2CCC1CC(N1CCC3(CC1)CN(C(=O)N(C)C)c1ccc(F)cc13)C2 (stereo not drawn)
Result: 65 to 85%

Query: Give Emax for this entry on M1 muscarinic receptor (Homo sapiens, UniProt P11229): "CC(C)C(=O)N[C@H]1CC2(CCN(C[C@H]3C[C@H]4CC[C@H]3C4)CC2)c2ccccc21"
Result: > 85%

Query: Give Emax for this entry on M1 muscarinic receptor (Homo sapiens, UniProt P11229): CCCC1CCC(N2CCC3(CC2)CNc2ccccc23)CC1 (stereo not drawn)
Result: < 65%

Query: Give Emax for this entry on M1 muscarinic receptor (Homo sapiens, UniProt P11229): "COc1cccc(N2CCC(N3CCC4(CC3)CN(C(=O)N(C)C)c3ccc(F)cc34)CC2)c1"
Result: 65 to 85%

Query: Give Emax for this entry on M1 muscarinic receptor (Homo sapiens, UniProt P11229): COCCOC(=O)N1CC2(CCN(C3CC4CCC(C3)N4C(=O)O[C@H]3CCOC3)CC2)c2cc(F)ccc21 (stereo partly drawn)
Result: < 65%

Query: Give Emax for this entry on M1 muscarinic receptor (Homo sapiens, UniProt P11229): "COc1ccc(N2CCC(N3CCC4(CC3)CN(C(=O)N(C)C)c3ccc(F)cc34)CC2)cc1"
Result: 65 to 85%

Query: Give Emax for this entry on M1 muscarinic receptor (Homo sapiens, UniProt P11229): "CCOC(=O)N1CCC(CN2CCC3(CC2)CN(C(C)=O)c2ccc(C)cc23)CC1"
Result: > 85%

Query: Give Emax for this entry on M1 muscarinic receptor (Homo sapiens, UniProt P11229): c1ccc2c(c1)NCC21CCN(CC2CC3CCC2C3)CC1 (stereo not drawn)
Result: < 65%

Query: Give Emax for this entry on M1 muscarinic receptor (Homo sapiens, UniProt P11229): O=C(OC1CCCC1)N1C2CCC1CC(N1CCC3(CC1)C(=O)Nc1ccccc13)C2 (stereo not drawn)
Result: 65 to 85%

----------
Molecular target: M1 muscarinic receptor (Homo sapiens)
Construct: expressed in transfected cells; host or cells: CHO cells (M1-CHO, under zeocin and G418 selection)
Sequence (P11229 1-460): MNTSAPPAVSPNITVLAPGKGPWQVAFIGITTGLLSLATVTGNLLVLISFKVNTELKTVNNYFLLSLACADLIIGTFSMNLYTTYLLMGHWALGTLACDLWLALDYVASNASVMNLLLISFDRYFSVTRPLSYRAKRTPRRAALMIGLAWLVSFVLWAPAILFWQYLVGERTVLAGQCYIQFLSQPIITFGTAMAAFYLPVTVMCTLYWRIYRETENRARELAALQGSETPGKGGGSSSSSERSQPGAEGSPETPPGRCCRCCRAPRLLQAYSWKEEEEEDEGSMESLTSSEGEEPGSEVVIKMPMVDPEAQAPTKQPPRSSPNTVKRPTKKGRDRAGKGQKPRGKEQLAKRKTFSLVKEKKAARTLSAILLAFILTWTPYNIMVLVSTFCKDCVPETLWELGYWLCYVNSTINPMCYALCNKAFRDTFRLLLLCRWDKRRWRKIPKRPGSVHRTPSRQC
Assay: Functional mobilization of intracellular calcium (FLIPR, Fluo-3), M1-CHO cells
Format: cell-based
Conditions: compound nos. 1-454; 100% efficacy is the maximum response obtained with the Carbachol control; read-out: M1 Efficacy
Endpoint Name: Emax

Examples with their reported Emax follow.
O=C1CC2(CCN(C[C@H]3C[C@H]4C=C[C@H]3C4)CC2)c2ccccc21 [compound 104]: 65 to 85%
COCCOC(=O)N1CCC(N2CCC3(CC2)CN(C(C)=O)c2ccc(F)cc23)CC1 [compound 284]: < 65%
CC(=O)N1CC2(CCN(C3CCC[C@@H](C)C3)CC2)c2cc(F)ccc21 (some centres unmarked) [compound 240]: 65 to 85%

Query: Tell me measured Emax for Fc1ccc2c(c1)C1(CCN(C3CC4CCC3C4)CC1)CN2 (centres unmarked) [compound 416] please.
Result: < 65%

Query: Tell me measured Emax for O=C(C1CC1)N1CC2(CCN(C3CC4CCC(C3)N4C(=O)O[C@H]3CCOC3)CC2)c2cc(F)ccc21 (some centres unmarked) [compound 57] please.
Result: 65 to 85%

Query: Tell me measured Emax for CCOC(=O)N1CCC(N2CCC3(CC2)CN(C(C)=O)c2ccc(-c4ccc(S(C)(=O)=O)cc4)cc23)CC1 [compound 177] please.
Result: 65 to 85%

----------
Attribute: Emax
Target: M1 muscarinic receptor (Homo sapiens, UniProt P11229)
Construct: expressed in transfected cells; host or cells: CHO cells (M1-CHO, under zeocin and G418 selection)
Assay: Functional mobilization of intracellular calcium (FLIPR, Fluo-3), M1-CHO cells
Format: cell-based
Details: compound nos. 1-454; 100% efficacy is the maximum response obtained with the Carbachol control; read-out: M1 Efficacy
Description: CHO cells expressing muscarinic receptors (M1 to M5) are grown as monolayers in tissue culture flasks at 37° C. in a humidified atmosphere containing 5% CO2 and passaged every 3-5 days. […] The potency, efficacy and selectivity of the muscarinic compounds were evaluated by screening the compound activity across the whole family (M1 to M5 cells). […]

Examples with their reported Emax follow.
CCOC(=O)N1CCC(N2CCC3(CC2)CN(C(=O)OCCOC)c2ccc(F)cc23)CC1 [compound 38]: > 85%
CCOC(=O)N1CCC(N2CCC3(CC2)CN(C(C)=O)c2ccc(OC)cc23)CC1 [compound 340]: < 65%
CC(=O)NC1CC2(CCN(C[C@@H]3C[C@H]4C=C[C@H]3C4)CC2)c2ccccc21 (stereo partly drawn) [compound 408]: 65 to 85%
O=C(C1CC1)N1CC2(CCN(C3CC4CCC(C3)N4C(=O)O[C@@H]3CCOC3)CC2)c2cc(F)ccc21 (stereo partly drawn) [compound 87]: 65 to 85%
CCOC(=O)N1CCC(N2CCC3(CC2)CN(C(C)=O)c2ccc(C)cc23)CC1 [compound 92]: 65 to 85%

Consider now this further compound.
Query: Tell me measured Emax for CCOC(=O)N1C2CCC1CC(N1CCC3(CC1)CN(C(=O)Nc1c(C)noc1C)c1ccc(F)cc13)C2 (stereo not drawn) [compound 83] please.
Result: < 65%

----------
Molecular target: M4 muscarinic receptor (Homo sapiens)
Construct: expressed in transfected cells; host or cells: CHO cells (M4-CHO, under puromycin, zeocin and blasticidin selection)
Sequence (P08173 1-479): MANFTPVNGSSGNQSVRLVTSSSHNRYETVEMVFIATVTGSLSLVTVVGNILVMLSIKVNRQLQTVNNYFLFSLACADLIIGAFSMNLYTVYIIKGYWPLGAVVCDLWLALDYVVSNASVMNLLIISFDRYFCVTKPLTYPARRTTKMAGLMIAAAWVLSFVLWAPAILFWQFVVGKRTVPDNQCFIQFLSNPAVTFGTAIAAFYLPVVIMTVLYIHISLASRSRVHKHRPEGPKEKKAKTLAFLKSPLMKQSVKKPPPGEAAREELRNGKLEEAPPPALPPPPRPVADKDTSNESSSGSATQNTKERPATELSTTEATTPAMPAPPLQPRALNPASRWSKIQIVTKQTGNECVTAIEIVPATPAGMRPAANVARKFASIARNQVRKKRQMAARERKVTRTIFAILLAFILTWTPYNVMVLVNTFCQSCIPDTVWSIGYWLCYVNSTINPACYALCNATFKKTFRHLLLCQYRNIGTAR
Assay: Functional mobilization of intracellular calcium (FLIPR, Fluo-3), M4-CHO cells
Format: cell-based
Settings: compound nos. 455-509; 100% efficacy is the maximum response obtained with the Carbachol control; read-out: M4 Efficacy
Procedure: CHO cells expressing muscarinic receptors (M1 to M5) are grown as monolayers in tissue culture flasks at 37° C. in a humidified atmosphere containing 5% CO2 and passaged every 3-5 days. […] The potency, efficacy and selectivity of the muscarinic compounds were evaluated by screening the compound activity across the whole family (M1 to M5 cells). […]
Endpoint Name: Emax

CC(=O)N1CC2(CCN(C3CCN(c4cncc(C5CC5)n4)CC3)CC2)c2ccccc21: < 25%

Query: Tell me measured Emax for "CN(C)C(=O)N1CC2(CCN(C3CCN(c4ncnc5ccsc45)CC3)CC2)c2cc(F)ccc21" please.
Result: 25 to 100%

Query: Tell me measured Emax for "Cc1ccc(N2CCC(N3CCC4(CC3)CN(C(=O)N(C)C)c3ccc(F)cc34)CC2)nn1" please.
Result: < 25%

Query: Tell me measured Emax for "CCc1nsc(N2CCC(N3CCC4(CC3)CN(C(=O)N(C)C)c3ccccc34)CC2)n1" please.
Result: > 100%

Query: Tell me measured Emax for "CC(=O)N1CC2(CCN(C3CCN(c4nccs4)CC3)CC2)c2ccccc21" please.
Result: < 25%

Query: Tell me measured Emax for "CN(C)C(=O)N1CC2(CCN(C3CCN(c4cnc5ccccc5n4)CC3)CC2)c2ccccc21" please.
Result: 25 to 100%
